# system: composite Cel-L-AChR with Hco-ACR-8 (29/38/63/L1 + Hco-ACR-8)
# Construct: mixed-species complex of whole subunits; cRNA in Xenopus laevis oocytes with C. elegans RIC-3, UNC-50, UNC-74; LEV-8 replaced by H. contortus ACR-8
# Sequence (A9XX24 19-536): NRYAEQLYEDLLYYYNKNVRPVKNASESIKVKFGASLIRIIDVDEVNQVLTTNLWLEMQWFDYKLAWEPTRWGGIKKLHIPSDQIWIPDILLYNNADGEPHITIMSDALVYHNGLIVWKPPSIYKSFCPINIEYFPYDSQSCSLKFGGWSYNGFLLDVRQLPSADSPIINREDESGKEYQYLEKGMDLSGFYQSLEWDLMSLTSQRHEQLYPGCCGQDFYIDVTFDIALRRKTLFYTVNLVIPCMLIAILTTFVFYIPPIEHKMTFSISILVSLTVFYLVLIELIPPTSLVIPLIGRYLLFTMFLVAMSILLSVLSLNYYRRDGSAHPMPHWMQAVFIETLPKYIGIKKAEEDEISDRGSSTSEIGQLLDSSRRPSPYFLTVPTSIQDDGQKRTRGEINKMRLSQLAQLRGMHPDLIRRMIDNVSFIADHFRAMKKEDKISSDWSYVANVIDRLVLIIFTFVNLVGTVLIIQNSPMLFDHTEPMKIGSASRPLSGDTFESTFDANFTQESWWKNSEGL
# Sequence (Q23022 17-511, further chain): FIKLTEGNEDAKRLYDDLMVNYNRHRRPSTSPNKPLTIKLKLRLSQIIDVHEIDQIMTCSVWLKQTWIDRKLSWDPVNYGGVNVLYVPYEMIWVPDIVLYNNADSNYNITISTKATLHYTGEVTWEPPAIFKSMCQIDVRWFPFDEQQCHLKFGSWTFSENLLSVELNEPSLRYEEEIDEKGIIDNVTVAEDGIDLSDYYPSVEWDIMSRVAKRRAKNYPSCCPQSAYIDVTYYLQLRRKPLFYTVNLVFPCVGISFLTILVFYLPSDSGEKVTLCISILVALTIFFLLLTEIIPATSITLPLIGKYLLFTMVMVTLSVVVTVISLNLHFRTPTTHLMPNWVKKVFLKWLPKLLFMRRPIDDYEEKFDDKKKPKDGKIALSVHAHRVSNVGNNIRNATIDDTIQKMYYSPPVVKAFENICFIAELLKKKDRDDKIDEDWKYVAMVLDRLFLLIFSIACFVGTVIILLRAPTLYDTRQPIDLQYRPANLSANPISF
# Sequence (Q9N587 24-502, further chain): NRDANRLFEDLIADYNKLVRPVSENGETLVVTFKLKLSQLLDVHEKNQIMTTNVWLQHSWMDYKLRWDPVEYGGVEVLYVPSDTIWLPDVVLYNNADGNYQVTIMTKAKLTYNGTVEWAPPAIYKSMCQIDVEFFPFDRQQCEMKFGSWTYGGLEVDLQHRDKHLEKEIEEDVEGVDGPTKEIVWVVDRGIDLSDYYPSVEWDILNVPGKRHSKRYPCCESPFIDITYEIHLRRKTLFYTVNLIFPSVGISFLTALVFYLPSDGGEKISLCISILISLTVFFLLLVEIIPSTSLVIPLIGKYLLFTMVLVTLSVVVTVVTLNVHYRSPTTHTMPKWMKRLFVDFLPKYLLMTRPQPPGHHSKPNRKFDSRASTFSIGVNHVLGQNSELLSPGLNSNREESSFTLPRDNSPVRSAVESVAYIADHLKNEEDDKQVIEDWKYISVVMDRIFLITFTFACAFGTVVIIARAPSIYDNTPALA
# Sequence (P48181 27-493, further chain): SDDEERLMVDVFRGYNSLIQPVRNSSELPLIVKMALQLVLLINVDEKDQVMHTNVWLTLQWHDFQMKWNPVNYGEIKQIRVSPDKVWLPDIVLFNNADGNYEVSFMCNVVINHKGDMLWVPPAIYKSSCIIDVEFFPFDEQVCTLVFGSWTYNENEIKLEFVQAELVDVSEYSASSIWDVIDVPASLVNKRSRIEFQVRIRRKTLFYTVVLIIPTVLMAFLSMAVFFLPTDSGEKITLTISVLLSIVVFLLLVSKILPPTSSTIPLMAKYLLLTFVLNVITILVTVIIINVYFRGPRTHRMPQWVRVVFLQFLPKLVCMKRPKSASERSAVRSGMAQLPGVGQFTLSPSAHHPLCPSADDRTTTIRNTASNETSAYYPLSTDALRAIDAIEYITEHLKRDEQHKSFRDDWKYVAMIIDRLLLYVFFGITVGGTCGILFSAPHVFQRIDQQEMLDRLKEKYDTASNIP
# Sequence (Q27218 32-507, further chain): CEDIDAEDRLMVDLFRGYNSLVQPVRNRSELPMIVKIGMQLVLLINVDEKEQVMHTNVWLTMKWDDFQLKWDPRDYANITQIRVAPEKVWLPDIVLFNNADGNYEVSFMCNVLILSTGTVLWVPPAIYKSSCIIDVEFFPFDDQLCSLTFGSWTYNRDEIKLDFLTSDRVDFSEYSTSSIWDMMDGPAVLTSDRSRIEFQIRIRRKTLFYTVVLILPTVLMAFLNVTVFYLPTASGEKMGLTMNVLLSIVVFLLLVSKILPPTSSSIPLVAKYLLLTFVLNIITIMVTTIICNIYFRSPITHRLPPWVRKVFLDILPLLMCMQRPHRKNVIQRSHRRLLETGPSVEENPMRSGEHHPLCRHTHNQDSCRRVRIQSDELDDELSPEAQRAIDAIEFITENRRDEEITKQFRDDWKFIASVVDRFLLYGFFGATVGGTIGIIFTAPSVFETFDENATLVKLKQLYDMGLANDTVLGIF
# measurement.description: two-electrode voltage clamp, Xenopus oocytes
# Format: cell-based, Caenorhabditis elegans; Haemonchus contortus
# test.context: read-out: Lev EC50; full agonist; responses normalized to 100 μM ACh
reported.metric: pEC50
Answers are plain numbers, as −log10 of the molar value.

Entry "c1ccc([C@H]2CN3CCSC3=N2)cc1" has what pEC50?
5.57

* * *

# system: composite Cel-L-AChR with Asu-ACR-8 (29/38/63/L1 + Asu-ACR-8)
# Construct: mixed-species complex of whole subunits; cRNA in Xenopus laevis oocytes with C. elegans RIC-3, UNC-50, UNC-74; LEV-8 replaced by A. suum ACR-8
# Sequence (A0A2I6TEN1 25-521, one chain of several): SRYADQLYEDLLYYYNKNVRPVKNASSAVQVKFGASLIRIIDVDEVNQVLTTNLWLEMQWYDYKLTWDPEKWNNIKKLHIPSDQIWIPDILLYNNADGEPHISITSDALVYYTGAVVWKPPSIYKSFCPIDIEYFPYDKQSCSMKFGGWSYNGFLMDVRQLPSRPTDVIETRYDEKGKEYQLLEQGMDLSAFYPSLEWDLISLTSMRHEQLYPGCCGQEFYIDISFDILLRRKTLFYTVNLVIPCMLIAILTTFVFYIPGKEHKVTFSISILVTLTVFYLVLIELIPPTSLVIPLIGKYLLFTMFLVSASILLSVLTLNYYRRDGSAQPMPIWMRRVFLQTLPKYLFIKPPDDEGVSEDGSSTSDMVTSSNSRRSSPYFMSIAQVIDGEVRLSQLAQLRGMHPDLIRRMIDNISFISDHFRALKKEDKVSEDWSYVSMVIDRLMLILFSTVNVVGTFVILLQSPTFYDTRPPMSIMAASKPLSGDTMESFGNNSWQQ
# measurement.description: two-electrode voltage clamp, Xenopus oocytes
# Assay type: cell-based, Caenorhabditis elegans; Ascaris suum
# test.context: read-out: Lev EC50; agonist; responses normalized to 100 μM ACh
reported.metric: pEC50
Give bare numbers, as −log10 of the molar value.

Entry "c1ccc([C@H]2CN3CCSC3=N2)cc1" has what pEC50?
5.24

* * *

# system: Cel-L-AChR (29/38/63/L1 + Cel-LEV-8)
# Construct: gene unc-38; full-length subunits from cRNA in Xenopus laevis oocytes with ancillary C. elegans RIC-3, UNC-50, UNC-74; heteropentamer
# Sequence (Q23022 17-511): as the sequence (Q23022 17-511, further chain) above
# Sequence (Q9N587 24-502, further chain): as the sequence (Q9N587 24-502, further chain) above
# Sequence (P48181 27-493, further chain): as the sequence (P48181 27-493, further chain) above
# Sequence (Q27218 32-507, further chain): as the sequence (Q27218 32-507, further chain) above
# Sequence (Q93329 26-531, further chain): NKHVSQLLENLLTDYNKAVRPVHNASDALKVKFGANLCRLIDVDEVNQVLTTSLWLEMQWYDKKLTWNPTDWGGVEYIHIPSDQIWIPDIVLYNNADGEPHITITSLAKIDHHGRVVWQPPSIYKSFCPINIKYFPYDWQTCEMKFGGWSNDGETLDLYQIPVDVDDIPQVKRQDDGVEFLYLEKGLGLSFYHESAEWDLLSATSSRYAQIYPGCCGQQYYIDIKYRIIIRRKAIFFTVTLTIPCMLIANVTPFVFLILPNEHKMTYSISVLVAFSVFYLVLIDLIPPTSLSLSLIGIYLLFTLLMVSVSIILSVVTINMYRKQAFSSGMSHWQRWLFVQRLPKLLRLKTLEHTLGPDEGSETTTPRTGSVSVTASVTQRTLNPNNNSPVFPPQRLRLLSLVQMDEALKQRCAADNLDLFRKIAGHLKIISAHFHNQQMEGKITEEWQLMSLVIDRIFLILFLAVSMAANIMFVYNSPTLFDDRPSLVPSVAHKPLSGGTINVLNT
# measurement.description: two-electrode voltage clamp, Xenopus oocytes
# Format: cell-based, Caenorhabditis elegans
# test.context: partial agonist; responses normalized to 100 μM ACh
reported.metric: EC50

Entry "c1ccc([C@H]2CN3CCSC3=N2)cc1" has what EC50?
6.4 µM

* * *

# system: composite Cel-L-AChR with Hco-UNC-38 (29/63/L1/L8 + Hco-UNC-38)
# Construct: mixed-species complex of whole subunits; cRNA in Xenopus laevis oocytes with ancillary RIC-3, UNC-50, UNC-74; Cel-UNC-38 replaced by H. contortus UNC-38
# Sequence (D6MYF3 20-512, one chain of several): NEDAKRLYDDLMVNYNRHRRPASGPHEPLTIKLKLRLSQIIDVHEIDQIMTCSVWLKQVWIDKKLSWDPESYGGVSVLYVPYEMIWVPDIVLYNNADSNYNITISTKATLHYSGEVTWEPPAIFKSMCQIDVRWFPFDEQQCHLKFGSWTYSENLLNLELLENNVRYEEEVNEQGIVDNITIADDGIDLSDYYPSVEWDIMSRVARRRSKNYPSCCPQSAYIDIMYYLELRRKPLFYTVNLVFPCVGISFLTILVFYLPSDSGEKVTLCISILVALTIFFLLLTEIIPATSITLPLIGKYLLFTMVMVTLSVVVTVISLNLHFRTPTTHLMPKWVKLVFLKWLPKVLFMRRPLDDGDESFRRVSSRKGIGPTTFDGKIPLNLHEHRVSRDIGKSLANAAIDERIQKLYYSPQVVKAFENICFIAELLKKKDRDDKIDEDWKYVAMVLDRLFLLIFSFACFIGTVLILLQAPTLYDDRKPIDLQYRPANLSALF
# measurement.description: two-electrode voltage clamp, Xenopus oocytes
# test.context: read-out: Lev EC50; agonist; responses normalized to 100 μM ACh
reported.metric: pEC50
Numbers only, as −log10 of the molar value.

Entry "c1ccc([C@H]2CN3CCSC3=N2)cc1" has what pEC50?
4.87

* * *

# system: composite Cel-L-AChR with Min-ACR-8 (29/38/63/L1 + Min-ACR-8)
# Construct: mixed-species complex of whole subunits; cRNA in Xenopus laevis oocytes with C. elegans RIC-3, UNC-50, UNC-74; LEV-8 replaced by M. incognita ACR-8
# Sequence (A0A2I6TEK4 19-527, one chain of several): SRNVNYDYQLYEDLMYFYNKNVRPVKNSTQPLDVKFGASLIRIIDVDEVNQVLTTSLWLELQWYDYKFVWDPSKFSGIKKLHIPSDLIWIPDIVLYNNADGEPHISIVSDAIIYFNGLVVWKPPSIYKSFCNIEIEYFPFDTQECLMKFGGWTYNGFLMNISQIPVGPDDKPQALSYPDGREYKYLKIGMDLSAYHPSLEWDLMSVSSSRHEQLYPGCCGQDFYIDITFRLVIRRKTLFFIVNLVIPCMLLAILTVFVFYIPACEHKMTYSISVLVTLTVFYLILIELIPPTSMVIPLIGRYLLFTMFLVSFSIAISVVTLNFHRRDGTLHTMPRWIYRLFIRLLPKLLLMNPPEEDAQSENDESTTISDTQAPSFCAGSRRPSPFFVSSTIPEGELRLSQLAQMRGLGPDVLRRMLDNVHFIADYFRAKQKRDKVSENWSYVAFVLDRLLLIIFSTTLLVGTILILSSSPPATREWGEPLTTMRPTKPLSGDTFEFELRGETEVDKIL
# measurement.description: two-electrode voltage clamp, Xenopus oocytes
# test.context: agonist; responses normalized to 100 μM ACh; read-out: Lev EC50
reported.metric: EC50 (µM)
Numbers only, in µM.

Entry "c1ccc([C@H]2CN3CCSC3=N2)cc1" has what EC50?
10.1
